The values you see were collected from patent US20100331384A1.

# System: α2-ARs (Homo sapiens, UniProt P08913)
# Construct: other: human brain tissue in vitro; other: stimulation of [35S]GTPγS b
# Sequence (P08913 whole entry): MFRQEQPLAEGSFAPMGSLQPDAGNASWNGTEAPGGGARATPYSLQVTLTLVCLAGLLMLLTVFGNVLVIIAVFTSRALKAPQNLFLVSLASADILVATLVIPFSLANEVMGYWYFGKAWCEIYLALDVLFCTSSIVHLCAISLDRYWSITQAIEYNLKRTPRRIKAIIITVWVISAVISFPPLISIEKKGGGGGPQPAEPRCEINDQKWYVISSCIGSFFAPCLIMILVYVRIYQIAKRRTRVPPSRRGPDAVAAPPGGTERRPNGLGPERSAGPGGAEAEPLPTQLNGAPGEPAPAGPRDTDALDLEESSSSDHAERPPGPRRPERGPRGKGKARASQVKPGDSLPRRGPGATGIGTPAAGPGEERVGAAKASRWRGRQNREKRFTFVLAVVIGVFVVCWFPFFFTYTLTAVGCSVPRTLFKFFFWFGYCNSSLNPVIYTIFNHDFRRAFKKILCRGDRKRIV
# Assay Protocol: [35S]GTPγS binding functional assay, compounds alone
# Format: biochemical
# Stated Conditions: human brain PFC membranes
Measured Attribute: stimulation of [35S]GTPγS binding by the compound on its own

Compound | Result
Cc1ccc(NC2=NCCN2)cc1 [Compound 6b] | stimulated binding
c1cc2c(cc1NC1=NCCN1)CCCC2 [Compound 10b] | stimulated binding

###

# System: α2-ARs (Homo sapiens, UniProt P08913)
# Construct: other: human brain tissue in vitro; other: stimulation of [35S]GTPγS b
# Assay Protocol: [35S]GTPγS binding functional assay, compounds alone
# Assay type: biochemical
# Stated Conditions: human brain PFC membranes
Measured Attribute: stimulation of [35S]GTPγS binding by the compound on its own

Compound | Result
Cc1ccc(NC2=NCCN2)cc1C [Compound 8b] | stimulated binding
c1cc2c(cc1NC1=NCCN1)CCC2 [Compound 9b, 5-(2-imidazolidinylimino)indan] | stimulated binding

###

# System: α2-ARs (Homo sapiens, UniProt P08913)
# Construct: other: human brain tissue in vitro; other: stimulation of [35S]GTPγS b
# Assay Protocol: [35S]GTPγS binding functional assay, compounds alone
# Format: biochemical
# Stated Conditions: human brain PFC
Measured Attribute: agonistic or antagonistic properties in [35S]GTPγS experiments

Consider the worked cases shown below.
Compound | Result
c1cc2c(cc1NC1=NCCN1)Cc1ccc(NC3=NCCN3)cc1C2 [Compound 18b] | agonistic properties
N=C(N)Nc1ccc2c(c1)Cc1ccc(NC(=N)N)cc1C2 [Compound 21b, 2,6-diguanidino-9,10-dihydroanthracene] | agonistic properties
c1cc2c(cc1NC1=NCCN1)CCC2 [Compound 9b, 5-(2-imidazolidinylimino)indan] | agonistic properties
c1cc(NC2=NCCN2)ccc1CCc1ccc(NC2=NCCN2)cc1 [Compound 20b] | antagonistic properties
Cc1ccc(NC2=NCCN2)cc1C [Compound 8b] | agonistic properties
c1cc2c(cc1NC1=NCCN1)CCCC2 [Compound 10b] | agonistic properties
N=C(N)Nc1ccc2c(c1)CCCC2 [Compound 17b] | antagonistic properties

Please look at the following compound next.
For the compound shown here, Cc1ccc(NC2=NCCN2)cc1 [Compound 6b] , give the reported agonistic or antagonistic properties in [35S]GTPγS experiments.
agonistic properties

###

# System: α2-ARs (Homo sapiens)
# Construct: other: human brain tissue in vitro; other: stimulation of [35S]GTPγS b
# Assay Protocol: [35S]GTPγS binding functional assay, compounds alone
# Format: biochemical
# Stated Conditions: read-out: Emax (%), percentage efficacy relative to UK14304
Measured Attribute: Emax (%)
Quick note: give the figure in %, leave out the unit.

Examples from the recorded data:
Molecule | Output Unit | Emax
c1cc2c(cc1NC1=NCCN1)CCCC2 [Compound 10b] | % | 100
Cc1ccc(NC2=NCCN2)cc1 [Compound 6b] | % | 97
c1ccc(Cc2ccc(NC3=NCCN3)cc2)cc1 [Compound 4b] | % | 111
c1cc2c(cc1NC1=NCCN1)CCC2 [Compound 9b, 5-(2-imidazolidinylimino)indan] | % | 98

Field: next molecule
Lab request: please report Emax under test system α2-ARs (Homo sapiens) for Cc1ccc(NC2=NCCN2)cc1C [Compound 8b]
89
